Provenance of the data: patent US20050004186A1

# melting point annotations
Structures can show the parent of a compound that is named as a salt.

Reference set (4 entries):
CN(C)c1ccc(Nc2nnc(-c3ccc(F)c(F)c3Nc3ccc(I)cc3F)o2)cc1	230 to 233 °C
CCNc1nnc(-c2ccc(F)c(F)c2Nc2ccc(I)cc2F)s1	238 to 239 °C
C#Cc1ccc(Nc2c(-c3nnc(NCCO)o3)ccc(F)c2F)c(F)c1	115.9 to 116.5 °C
CN(C)CCCN(C)c1nnc(-c2ccc(F)c(F)c2Nc2ccc(I)cc2F)o1 (as salt: hydrochloride)	123 to 126 °C

// field: melting point; key: OCCCCNc1nnc(-c2ccc(F)c(F)c2Nc2ccc(I)cc2F)o1 ; value = 82 to 83 °C

// field: melting point; key: OCCC1CCN(c2nnc(-c3ccc(F)c(F)c3Nc3ccc(I)cc3F)o2)CC1 ; value = 121 to 122 °C

// field: melting point; key: CN(C)CC(C)(C)CNc1nnc(-c2ccc(F)c(F)c2Nc2ccc(I)cc2F)o1 ; value = 143 to 146 °C

// field: melting point; key: CN(C)CCNc1nnc(-c2ccc(F)c(F)c2Nc2ccc(I)cc2F)o1 (as salt: hydrochloride) ; value = 184 to 187 °C

// field: melting point; key: CNCCNc1nnc(-c2ccc(F)c(F)c2Nc2ccc(I)cc2F)o1 (as salt: hydrochloride) ; value = 173 to 175 °C

// field: melting point; key: NCCNc1nnc(-c2ccc(F)c(F)c2Nc2ccc(I)cc2F)o1 (as salt: salt) ; value = 156 to 158 °C

// field: melting point; key: CCc1ccc(Nc2c(-c3nnc(NCCNC)o3)ccc(F)c2F)c(F)c1 ; value = 154 to 157 °C

// field: melting point; key: C=Cc1ccc(Nc2c(-c3nnc(NCCN4CCOCC4)o3)ccc(F)c2F)c(F)c1 ; value = 174 to 177 °C

// field: melting point; key: CCc1ccc(Nc2c(-c3nnc(CC)o3)ccc(F)c2F)c(F)c1 ; value = 82 to 83 °C

// field: melting point; key: COc1ccc(Nc2nnc(-c3ccc(F)c(F)c3Nc3ccc(I)cc3F)o2)c(OC)c1 ; value = 185 to 186 °C

// field: melting point; key: OCCCCCNc1nnc(-c2ccc(F)c(F)c2Nc2ccc(I)cc2F)o1 ; value = 119 to 121 °C

* * *

System: MEK
Assay: Cellular assay for measuring MEK inhibition, C26ELSA (pERK ELISA format in C26 cells)
Assay type: cell-based, murine
Conditions: 5 μM; C26 cells
Description: Cellular Assay for Measuring MEK Inhibition MEK inhibitors were evaluated by determining their ability to inhibit phosphorylation of MAP kinase (ERK) in murine colon 26 (C26) carcinoma cells. Since ERK1 and ERK2 represent the only known substrates for MEK1 and MEK2, the measurement of inhibition of ERK phosphorylation in cells provides direct read out of cellular MEK inhibition by the compounds of the invention. […]
# C26ELSA % Inhibition @ 5 μM annotations
Dear colleague, please return just the value in %, with no unit written.

Reference set (5 entries):
C#Cc1ccc(Nc2c(-c3nnc(CC)o3)ccc(F)c2F)c(F)c1	43
CC(=O)c1ccc(Nc2c(-c3nnc(NCCN4CCOCC4)o3)ccc(F)c2F)c(F)c1	14
CCc1nnc(-c2ccc(F)c(F)c2Nc2ccc(I)cc2F)o1	88
OCCc1ccc(Nc2c(-c3nnc(NCCN4CCOCC4)o3)ccc(F)c2F)c(F)c1	33
CCc1ccc(Nc2c(-c3nnc(CCCN4CCOCC4)o3)ccc(F)c2F)c(F)c1	6

Next compound, C26ELSA % Inhibition @ 5 μM to be filled in.
// field: C26ELSA % Inhibition @ 5 μM; key: CCc1ccc(Nc2c(-c3nnc(CCCBr)o3)ccc(F)c2F)c(F)c1 ; value = 13

* * *

Counter-ions that a name gives are not always drawn.
endpoint name: melting point

Reference set (5 entries):
OCCCc1ccc(Nc2c(-c3nnc(NCCN4CCOCC4)o3)ccc(F)c2F)c(F)c1 [Example 147]	102 to 106 °C
CN(C)CCCNc1nnc(-c2ccc(F)c(F)c2Nc2ccc(I)cc2F)o1 (as salt: hydrochloride) [Example 16]	168 to 170 °C
OC1CCN(c2nnc(-c3ccc(F)c(F)c3Nc3ccc(I)cc3F)o2)C1 (centres unmarked) [Example 24]	182 to 183 °C
CCc1ccc(Nc2c(-c3nnc(NCCN4CCOCC4)o3)ccc(F)c2F)c(F)c1 [Example 68]	233 to 238 °C
OCCNc1nnc(-c2ccc(F)c(F)c2Nc2ccc(I)cc2F)o1 [Example 29]	100 to 103 °C

// field: melting point; key: CCNc1nnc(-c2ccc(F)c(F)c2Nc2ccc(I)cc2F)o1 [Example 4] ; value = 188 to 189 °C

// field: melting point; key: OCC(O)CNc1nnc(-c2ccc(F)c(F)c2Nc2ccc(I)cc2F)o1 (centres unmarked) [Example 8] ; value = 157 to 159 °C

// field: melting point; key: CC(C)(CO)CCCNc1nnc(-c2ccc(F)c(F)c2Nc2ccc(I)cc2F)o1 [Example 23] ; value = 67 to 70 °C

// field: melting point; key: OCC(CO)Nc1nnc(-c2ccc(F)c(F)c2Nc2ccc(I)cc2F)o1 [Example 154] ; value = 110 to 114 °C (dec.)

// field: melting point; key: NCCCCNc1nnc(-c2ccc(F)c(F)c2Nc2ccc(I)cc2F)o1 (as salt: hydrochloride) [Example 14] ; value = 157 to 159 °C

// field: melting point; key: C=CCNc1nnc(-c2ccc(F)c(F)c2Nc2ccc(I)cc2F)o1 [Example 5] ; value = 175 to 178 °C

// field: melting point; key: Fc1cc(I)ccc1Nc1c(-c2nnc(NCCN3CCCCC3)o2)ccc(F)c1F (as salt: hydrochloride) [Example 13] ; value = 191 to 193 °C

// field: melting point; key: C#Cc1ccc(Nc2c(-c3nnc(NCCN4CCOCC4)o3)ccc(F)c2F)c(F)c1 [Example 148] ; value = 146 to 148 °C

// field: melting point; key: C=CCNc1nnc(-c2ccc(F)c(F)c2Nc2ccc(CC)cc2F)o1 [Example 70] ; value = 120 to 123 °C

// field: melting point; key: CCc1ccc(Nc2c(-c3nnc(NC[C@@H](O)CO)o3)ccc(F)c2F)c(F)c1 [Example 152] ; value = 150 to 152 °C (dec.)

// field: melting point; key: CCc1ccc(Nc2c(-c3nnc(NCCO)o3)ccc(F)c2F)c(F)c1 [Example 69] ; value = 100 to 103 °C

// field: melting point; key: OCC1CCN(c2nnc(-c3ccc(F)c(F)c3Nc3ccc(I)cc3F)o2)CC1 [Example 25] ; value = 90 to 92 °C

* * *

# melting point annotations
Counter-ions that a name gives are not always drawn.

CCN(CCCCO)c1nnc(-c2ccc(F)c(F)c2Nc2ccc(I)cc2F)o1 [Example 27]	121 to 122 °C

// field: melting point; key: OCCCNc1nnc(-c2ccc(F)c(F)c2Nc2ccc(I)cc2F)o1 [Example 30] ; value = 154 to 155 °C

// field: melting point; key: Nc1nnc(-c2ccc(F)c(F)c2Nc2ccc(I)cc2F)o1 [Example 1] ; value = 248 to 249 °C

// field: melting point; key: COCCN1CCN(c2nnc(-c3ccc(F)c(F)c3Nc3ccc(I)cc3F)o2)CC1 [Example 22] ; value = 63 to 65 °C

// field: melting point; key: CCc1nnc(-c2ccc(F)c(F)c2Nc2ccc(I)cc2F)o1 [Example 143] ; value = 97 to 98 °C

// field: melting point; key: OC1CCN(c2nnc(-c3ccc(F)c(F)c3Nc3ccc(I)cc3F)o2)CC1 [Example 28] ; value = 216 to 217 °C

// field: melting point; key: OC[C@H](O)CNc1nnc(-c2ccc(F)c(F)c2Nc2ccc(I)cc2F)o1 [Example 150] ; value = 174 to 176 °C

// field: melting point; key: NCCCNc1nnc(-c2ccc(F)c(F)c2Nc2ccc(I)cc2F)o1 (as salt: hydrochloride) [Example 15] ; value = 173 to 176 °C

// field: melting point; key: CCN(CC)CCCNc1nnc(-c2ccc(F)c(F)c2Nc2ccc(I)cc2F)o1 [Example 10] ; value = 116 to 118 °C
